Target: STAT5b-SH2 domain (Homo sapiens, UniProt P51692)
Sequence (P51692 136-703): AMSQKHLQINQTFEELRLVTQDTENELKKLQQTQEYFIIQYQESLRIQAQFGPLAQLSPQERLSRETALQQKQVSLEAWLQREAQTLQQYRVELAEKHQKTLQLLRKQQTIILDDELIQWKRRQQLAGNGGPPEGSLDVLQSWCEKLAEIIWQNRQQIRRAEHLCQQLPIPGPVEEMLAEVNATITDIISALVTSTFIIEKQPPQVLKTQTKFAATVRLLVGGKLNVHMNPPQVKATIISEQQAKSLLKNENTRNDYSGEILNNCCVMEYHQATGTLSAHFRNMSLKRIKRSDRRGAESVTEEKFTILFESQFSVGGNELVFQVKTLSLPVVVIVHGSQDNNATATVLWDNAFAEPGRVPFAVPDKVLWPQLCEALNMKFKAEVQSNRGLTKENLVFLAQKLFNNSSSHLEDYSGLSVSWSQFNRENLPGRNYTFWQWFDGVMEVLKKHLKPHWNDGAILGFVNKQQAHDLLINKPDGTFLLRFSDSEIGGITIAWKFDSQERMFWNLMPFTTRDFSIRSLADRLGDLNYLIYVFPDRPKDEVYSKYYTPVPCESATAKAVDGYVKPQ
Assay: Competitive fluorescence polarization (FP) assay, STAT5b-SH2 domain
Conditions: Table 1; ligand efficiency
Experimental Readout: LE (kJ/mol* atom#)

Recorded LE, per entry:
Could you share what LE was measured for CCCCOC(=O)c1nonc1NCn1cnnn1 [Compound 7] , tested on STAT5b-SH2 domain (Homo sapiens, UniProt P51692)? 1.30

Also O=C(O)c1nonc1NCn1ccnn1 [Compound 9] , if possible. 1.41

Also Nc1nonc1C(=O)O [Compound 4, 4-Amino-furazan-3-carboxylic Acid] , if possible. 2.14

(a) O=C(O)c1nonc1NCn1nnc2ccccc21 [Compound 12]
(b) O=C(O)c1nonc1NCn1cnnn1 [Compound 3]
Between a and b , whose recorded LE is greater? Could you answer with the label of the item you picked? b
(b: 2.23 kJ/mol* atom#, a: 1.12 kJ/mol* atom#)
